Here, each record is paired with measured cAMP EC50 data.
# target.or.system: T1, wild-type human PTH/PTHrP receptor (hP1R-WT) (human, UniProt Q03431 27-593)
# T1 sequence (looked up): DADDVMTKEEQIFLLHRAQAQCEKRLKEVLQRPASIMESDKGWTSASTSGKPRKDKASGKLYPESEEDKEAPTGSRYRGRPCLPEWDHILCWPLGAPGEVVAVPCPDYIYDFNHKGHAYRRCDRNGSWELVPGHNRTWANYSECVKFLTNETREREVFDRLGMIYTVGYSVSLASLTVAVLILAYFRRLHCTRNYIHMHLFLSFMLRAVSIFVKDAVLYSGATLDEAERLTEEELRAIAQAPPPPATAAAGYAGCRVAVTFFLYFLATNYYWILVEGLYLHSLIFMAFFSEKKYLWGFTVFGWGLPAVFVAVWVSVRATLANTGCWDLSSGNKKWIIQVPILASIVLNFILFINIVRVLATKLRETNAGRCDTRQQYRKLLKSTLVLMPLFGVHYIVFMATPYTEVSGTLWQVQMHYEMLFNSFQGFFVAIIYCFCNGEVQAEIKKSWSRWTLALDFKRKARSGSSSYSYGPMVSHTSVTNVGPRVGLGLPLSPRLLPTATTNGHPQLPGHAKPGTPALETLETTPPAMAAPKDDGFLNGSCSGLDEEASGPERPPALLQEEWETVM
# assay.details: cell-based or functional assay
Square brackets hold non-standard residues; d marks the D form. Ends that are not written are not given here. hArg = N=C(N)NCCCC[C@H](N)C(=O)O; Aib = CC(C)(N)C(=O)O
Just the number in µM, nothing appended.

Using the record for A[Aib]AEIQLMHQ[hArg]AKW-NH2 (N-terminus assumed; SMILES CC[C@H](C)[C@H](NC(=O)[C@H](CCC(=O)O)NC(=O)[C@H](C)NC(=O)C(C)(C)NC(=O)[C@H](C)N)C(=O)N[C@@H](CCC(N)=O)C(=O)N[C@@H](CC(C)C)C(=O)N[C@@H](CCSC)C(=O)N[C@@H](Cc1c[nH]cn1)C(=O)N[C@@H](CCC(N)=O)C(=O)N[C@@H](CCCCNC(=N)N)C(=O)N[C@@H](C)C(=O)N[C@@H](CCCCN)C(=O)N[C@@H](Cc1c[nH]c2ccccc12)C(N)=O, Aib scan of [M]PTH(1-14); also called 623 Aib-2) [[Aib^2,M]PTH(1-14)] , report its cAMP EC50. 47

More entries:
Reported cAMP EC50 for AVAEIQLM[Aib]Q[hArg]AKW-NH2 (N-terminus assumed; SMILES CC[C@H](C)[C@H](NC(=O)[C@H](CCC(=O)O)NC(=O)[C@H](C)NC(=O)[C@@H](NC(=O)[C@H](C)N)C(C)C)C(=O)N[C@@H](CCC(N)=O)C(=O)N[C@@H](CC(C)C)C(=O)N[C@@H](CCSC)C(=O)NC(C)(C)C(=O)N[C@@H](CCC(N)=O)C(=O)N[C@@H](CCCCNC(=N)N)C(=O)N[C@@H](C)C(=O)N[C@@H](CCCCN)C(=O)N[C@@H](Cc1c[nH]c2ccccc12)C(N)=O, Aib scan of [M]PTH(1-14); also called 630 Aib-9) [[Aib^9,M]PTH(1-14)] : what is it? 710
